Method Notes: liver-stage malaria parasite growth inhibition, primary screen, cell-based, HepG2, luciferase luminescence, HepG2 viability (AID 624349);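 also: 100% = mean of DMSO negative control wells on the same plate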
Condition Details: P. berghei liver stage in HepG2, luciferase luminescence, concentration not given here; measured here: HepG2 viability without parasites
# viability per entry
Give the number; % is assumed, so skip it.

# example entries with known answers
[[record]]
molecule = "CC(=O)OCC(=O)[C@H]1CC[C@H]2[C@@H]3CC[C@H]4C[C@H](O)CC[C@]4(C)[C@H]3C(=O)C[C@]12C"
property = "viability"
measure_unit = "%"
result_value = 77.5

[[record]]
molecule = "NCCc1ccccn1"
property = "viability"
measure_unit = "%"
result_value = 95.2

[[record]]
molecule = "C=C1[C@@H](O)[C@]23C[C@@H]1[C@@H](O)C[C@H]2[C@@]12C4[C@@H]3C[C@@H]1[C@@](C)(CC[C@@H]2O)CN4CC"
property = "viability"
measure_unit = "%"
result_value = 104

[[record]]
molecule = "CC[C@@]1(O)C(=O)OCc2c1cc1n(c2=O)Cc2cc3c(O)cccc3nc2-1"
property = "viability"
measure_unit = "%"
result_value = 34

[[record]]
molecule = "COC(=O)C(c1ccccc1)C1CCCCN1 (configuration not stated)"
property = "viability"
measure_unit = "%"
result_value = 106


[in] Report viability for CC[C@H]1C2CC3[C@@H]4N(C)c5ccccc5[C@]45C[C@@H](C2C5O)N3[C@@H]1O (some centres not stated) please.
[out] 73.8

[in] Next entry: CCNCC(O)c1cccc(O)c1 (configuration not stated)
[out] 69.4

[in] Please do the same for CN1[C@@H]2CC[C@H]1CC(OC1c3ccccc3CCc3ccccc31)C2 (some centres not stated) as well.
[out] 69.7

[in] Also check "COC(=O)[C@]1(O)C[C@@H]2O[C@@]1(C)n1c3ccccc3c3c4c(c5c6ccccc6n2c5c31)C(=O)NC4"
[out] 53.6

[in] Do the same for C[C@@H]1O[C@@H](O[C@H]2CC[C@]3(C=O)C4CC[C@]5(C)[C@@H](C6=CC(=O)OC6)CC[C@]5(O)C4CC[C@]3(O)C2)[C@H](O)[C@H](O)[C@H]1O (some centres not stated) please
[out] 51

[in] Same question, "CC[C@@H]1C=CC=CC[C@H](C)[C@@H](O)[C@@H](C)C(=O)[C@H](C)[C@@H](O)[C@H](C)C(=O)[C@H](C)[C@@H](O)[C@H](C)C=CC(=O)O[C@H]2[C@@H](C)[C@@H](CC1)O[C@@]1(CC[C@@H](C)[C@@H](C[C@H](C)O)O1)[C@@H]2C" this time
[out] 67.4

[in] Repeat with COc1ccc(C(=O)OC2C[C@H]3CC[C@H](C2)N3C)cc1OC (some centres not stated)
[out] 108

###

The following molecules are listed with their measured cell count values.
Method Notes: sensitizers of A549 cells to miR-34 induction, primary screen, imaging, A549 dox-inducible miR-34, nuclei and caspase counts (AID 1347080)
Condition Details: A549 miR-34 inducible, Hoechst nuclei count, 48 h; measured here: total cells with miR-34 induction; stronger effect = lower value
Reply with just the number.

[[record]]
molecule = "CC(=O)Nc1cc([As](=O)(O)O)ccc1O"
result_value = 12000

[[record]]
molecule = "CC(C(=O)OC1CC2CCC(C1)N2C)c1ccc(Br)cc1 (configuration not stated)"
result_value = 8760

[[record]]
molecule = "CC(=Cc1csc(C)n1)C1CC2O[C@]2(C)CCCC(C)C(O)C(C)C(=O)C(C)(C)C(O)CC(=O)O1 (some centres not stated)"
result_value = 1610

[[record]]
molecule = "CC(=O)Nc1ccc(Cc2ccc(NC(C)=O)cc2)cc1"
result_value = 8350

[[record]]
molecule = "Clc1cnc(Oc2ccc(Oc3ncc(Cl)cc3Cl)cc2)c(Cl)c1"
result_value = 9890

[[record]]
molecule = "CC(C)[C@]12O[C@H]1[C@@H]1O[C@]13[C@]1(O[C@H]1C[C@H]1C4=C(CC[C@@]13C)C(=O)OC4)[C@@H]2O"
result_value = 1360

[[record]]
molecule = "CN(C(=O)Cc1ccc(Cl)c(Cl)c1)C(CN1CCCC1)c1cccc(OCC(=O)O)c1 (configuration not stated)"
result_value = 10700

[[record]]
molecule = "N[C@H]1C[C@@H]1c1ccccc1"
result_value = 9050

[[record]]
molecule = "CCCCC/C=C\\C/C=C\\C/C=C\\C/C=C\\CCCC(=O)OCCN"
result_value = 5780

[[record]]
molecule = "C#C[C@@H]1CC2C3CCC4=C[C@@H](OC(C)=O)CCC4C3CC[C@]2(C)[C@H]1OC(C)=O (some centres not stated)"
result_value = 11300


[in] Sample "CCCCC/C=C\C/C=C\C/C=C\C/C=C\CCCC(=O)NC[C@H](C)O" — what was its cell count?
[out] 6010

[in] Repeat with CCC1C=CC=CCC(C)C(O)[C@@](C)(O)C(=O)C(C)[C@@H](O)C(C)C(=O)C(C)C(O)C(C)C=CC(=O)OC2C(C)[C@]3(CCC(C)C(CC(C)O)O3)OC(CC1)[C@H]2C (some centres not stated)
[out] 3070

###

Method Notes: growth inhibition of DIPG glioma cells, dose response, cell-based, SU-DIPG-XIII, MIPE5.0, CellTiter-Glo, qHTS (AID 1347064);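 as to AC50: cells exposed to compound for 48 hours before the viability read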
Condition Details: SU-DIPG-XIII viability, CellTiter-Glo ATP luminescence
Inconclusive results are not listed. Calls of active or inactive are those of the source. The limit is not given here; nearly all actives have AC50 up to about 23 µM.
Property: AC50

[[record]]
compound = "C[C@@]12OC(=O)[C@]1([C@@H](O)[C@@H]1C=CCCC1)NC(=O)[C@@H]2CCCl"
property = "AC50"
result_value = "14.8 nM (active)"

[[record]]
compound = "C#CCN(C)[C@H](C)Cc1ccccc1"
property = "AC50"
result_value = "inactive"

[[record]]
compound = "N=C1NC(=O)N2CC12 (configuration not stated)"
property = "AC50"
result_value = "inactive"

[[record]]
compound = "CCOP(=O)(OCC)C(C)NC(=O)N(CCCl)N=O (configuration not stated)"
property = "AC50"
result_value = "inactive"

[[record]]
compound = "O=C(NCC1CCOCC1)c1cnc(Nc2ccc(Cl)cc2Cl)nc1C(F)(F)F"
property = "AC50"
result_value = "inactive"


[in] Item under review: "CC(C)c1cccc(C(C)C)c1O" . Reported AC50?
[out] inactive

[in] Try the compound "COC(=O)[C@@]12OC[C@]34[C@H]([C@@H](O)[C@@H]1O)[C@@]1(C)CC(=O)C(O)=C(C)[C@@H]1C[C@H]3OC(=O)[C@H](OC(=O)/C=C(\C)C(C)C)[C@@H]24"
[out] 59 nM (active)

###

Method Notes: sensitizers of A549 cells to miR-34 induction, primary screen, imaging, A549 dox-inducible miR-34, nuclei and caspase counts (AID 1347080)
Condition Details: A549 miR-34 inducible, Hoechst nuclei count, 48 h; measured here: relative caspase fold change +Dox/-Dox
Recorded fold change, one value per entry.
Lab note: record just the number, no unit beside it.

Below, each entry is followed by its recorded fold change result.
[[record]]
compound = "N[C@@H]1C[C@H]1c1ccccc1"
result_value = 1.35

[[record]]
compound = "COc1cc2c(cc1OC)[C@@]13CCN4CC5=CCOC6CC(=O)N2C1[C@H]6[C@H]5C[C@H]43 (stereo not given in full)"
result_value = 2.52

[[record]]
compound = "Cc1sc2c(c1C)C(c1ccc(Cl)cc1)=NC(CC(=O)Nc1ccc(O)cc1)c1nnc(C)n1-2 (stereo not given)"
result_value = 0.692

[[record]]
compound = "O1[As]2O[As]3O[As]1O[As](O2)O3"
result_value = 2.16


[in] Give the measured fold change of CCCC[N+]1(C)[C@@H]2CC(OC(=O)C(CO)c3ccccc3)C[C@H]1[C@@H]1O[C@@H]12 (stereo not given in full) .
[out] 1.14

[in] // query: "C=CCN1CC[C@]23c4c5ccc(O)c4O[C@H]2/C(=N/N=C2\CC[C@@]4(O)[C@H]6Cc7ccc(O)c8c7[C@@]4(CCN6CC=C)[C@H]2O8)CC[C@@]3(O)[C@H]1C5"
[out] 1.27

[in] One more compound: c1ccc(C2CNCc3ccccc32)cc1 (stereo not given)
[out] 0.998

[in] Param item: NCC(CP(=O)(O)O)c1ccc(Cl)cc1 (stereo not given)
[out] 1.21

[in] Then this compound: "CCCC(=O)OCC[N+](C)(C)C"
[out] 0.999

[in] Repeat for the following compound: "Cc1nnc2n1-c1sc(CCC(=O)N3CCOCC3)cc1C(c1ccccc1Cl)=NC2"
[out] 0.912

[in] Quick one: "CC(=O)[O][Hg][c]1ccccc1"
[out] 1.65

[in] Field entry: "C[N+](C)(C)CC(=O)[O-]"
[out] 4.05

[in] Please answer likewise for "CCCCC/C=C\C/C=C\C/C=C\C/C=C\CCCC(=O)NC[C@H](C)O"
[out] 1.04

[in] Next: "c1ccc(CCCCN2CCC(c3ccccc3)CC2)cc1"
[out] 1.02

[in] Thanks! And "CCCCC/C=C\C/C=C\C/C=C\C/C=C\CCCC(=O)N[C@H](C)COP(=O)(O)O" ?
[out] 0.754
